Assayed target: HO-1 (rat spleen) (Rattus norvegicus, UniProt P06762)
Construct: Spleen microsomes were used as a source of HO-1; from tissue; host or cells: spleen microsomal fraction of adult male Sprague-Dawley rats
Sequence (P06762 whole entry): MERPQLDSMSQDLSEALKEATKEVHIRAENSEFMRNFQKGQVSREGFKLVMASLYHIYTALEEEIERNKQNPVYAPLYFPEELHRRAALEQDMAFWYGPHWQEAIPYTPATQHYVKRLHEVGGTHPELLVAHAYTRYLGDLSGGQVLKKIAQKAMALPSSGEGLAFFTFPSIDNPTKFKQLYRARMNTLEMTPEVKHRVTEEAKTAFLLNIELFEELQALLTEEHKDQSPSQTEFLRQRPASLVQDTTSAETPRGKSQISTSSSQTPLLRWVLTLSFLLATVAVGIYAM
Measurement protocol: HO enzymatic activity in rat spleen microsomal fraction (CO formed from methemalbumin, gas chromatography)
Type: biochemical
Structures can show the parent of a compound that is named as a salt.
API: label(entry) gives 1 if the entry's IC50 is strictly smaller than 40 µM; on equality or larger values it gives -1.

Sample answers from the record:
NCC(=O)c1ccc(Br)cc1 :: -1
CC(=O)C(Cc1ccc(Cl)cc1)n1ccnc1 (racemic) [hydrochloride] :: -1
Nc1ccc(SC[C@@H]2CO[C@](CCc3ccc(Cl)cc3)(Cn3ccnc3)O2)cc1 [dihydrochloride] :: 1
c1ccc(Cn2ccnc2)cc1 [1-Benzyl-1H-imidazole hydrochloride] :: -1
OC(CCc1ccccc1)Cn1ncnn1 (racemic) [hydrochloride] :: -1

# input for lookup
# input Is it true that IC50 reported for COc1ccc(CCN2CCC(Nc3nc4ccccc4[nH]3)CC2)cc1 is less than 40 µM?
# output -1
